# System: prostate cancer cell PC-3
# assayRemarks: Cytotoxicity experiment, SRB method, tumor cell proliferation
# Type: cell-based
# measurementSetup: 48 h, read-out: IC50 (μmol/L) Prostate cancer cell PC-3
pIC50: −log10 of the molar value.
observedProperty: pIC50

QUERY: Query: pIC50; subject: COc1cc2ncnc(Nc3ccc(F)c(Cl)c3)c2cc1OCCn1ccnc1
RESULT: < 4.00

###

# Test system: Human breast cancer cell line (drug-resistant) MCF-7/A
# assayRemarks: Cytotoxicity experiment, SRB method, tumor cell proliferation
# Assay type: cell-based
# measurementSetup: Homo sapiens, MCF7a, 48 h, read-out: IC50 (umol/L) Breast cancer cell (drug-resistant) MCF-7/A
Assignment: determine reported IC50 for the given compounds.

QUERY: Record request: IC50 value, item CC(=O)O[C@H]1C(=O)[C@@]2(C)[C@H]([C@H](OC(=O)c3ccccc3)[C@]3(O)C[C@H](OC(=O)[C@H](O)[C@@H](NC(=O)c4ccccc4)c4ccccc4)C(C)=C1C3(C)C)[C@]1(OC(C)=O)CO[C@@H]1C[C@@H]2O [Taxol, reference compound]
RESULT: 0.44 µmol/L

QUERY: Any idea what its IC50 is? The compound is COc1cc2ncnc(Nc3ccc(F)c(Cl)c3)c2cc1OCCCNCCN
RESULT: > 100 µmol/L

QUERY: What value of measured IC50 is listed for COc1cc2ncnc(Nc3ccc(F)c(Cl)c3)c2cc1OCCn1ccnc1 ?
RESULT: > 100 µmol/L

QUERY: Bench note: what IC50 did COc1cc2ncnc(Nc3ccc(F)c(Cl)c3)c2cc1OC [LQ1001, reference compound] show?
RESULT: > 100 µmol/L

QUERY: So what does the record say about IC50 for COc1cc2ncnc(Nc3ccc(F)c(Cl)c3)c2cc1OCCNCCN ?
RESULT: > 100 µmol/L

###

# Test system: Human breast cancer cell line (drug-resistant) MCF-7/A
# assayRemarks: Cytotoxicity experiment, SRB method, tumor cell proliferation
# Assay type: cell-based
# measurementSetup: 48 h, read-out: IC50 (umol/L) Breast cancer cell (drug-resistant) MCF-7/A
observedProperty: IC50

QUERY: // lookup IC50 for COc1cc2ncnc(Nc3ccc(F)c(Cl)c3)c2cc1OCC[N]1CC[NH][Ru+]1([Cl])[c]1cccc(-c2ccccc2)c1.F[P-](F)(F)(F)(F)F (stereo not drawn)
RESULT: > 100 µmol/L

QUERY: Sample Cc1ccc(C(C)C)cc1.F[P-](F)(F)(F)(F)F.[Cl][Ru-]1[NH2+]CC[NH2+]1 [Pcy-Ru, reference compound] — what was its IC50?
RESULT: > 100 µmol/L

QUERY: State the recorded IC50 for this entry: COc1cc2ncnc(Nc3ccc(F)c(Cl)c3)c2cc1OCC[N]1CC[NH][Ru+]1([Cl])[c]1cc(C(C)C)ccc1C.F[P-](F)(F)(F)(F)F (stereo not drawn)
RESULT: > 100 µmol/L

###

Hi there, I'd appreciate the recorded pIC50 for every entry that follows.
# Tested on: human non-small cell lung cancer cell line A549
# assayRemarks: Cytotoxicity experiment, SRB method, tumor cell proliferation
# Type: cell-based
# measurementSetup: A549, 48 h, read-out: IC50 (μmol/L) Non-small cell lung cancer cell A549
pIC50: −log10 of the molar value.

QUERY: Give recorded pIC50 with human non-small cell lung cancer cell line A549 for the following molecule: Cc1ccc(C(C)C)cc1.F[P-](F)(F)(F)(F)F.[Cl][Ru-]1[NH2+]CC[NH2+]1 [Pcy-Ru, reference compound]
RESULT: 4.76

QUERY: Lab note: need pIC50 with human non-small cell lung cancer cell line A549 for entry COc1cc2ncnc(Nc3ccc(F)c(Cl)c3)c2cc1OCCC[N]1CC[NH][Ru+]1([Cl])[c]1cccc(-c2ccccc2)c1.F[P-](F)(F)(F)(F)F (stereo not drawn) [ZW2006] , please look it up.
RESULT: < 4.00

QUERY: For the record COc1cc2ncnc(Nc3ccc(F)c(Cl)c3)c2cc1OCC[N]1CC[NH][Ru+]1([Cl])[c]1cccc(-c2ccccc2)c1.F[P-](F)(F)(F)(F)F (stereo not drawn) [ZW2003] , what value of pIC50 is listed for human non-small cell lung cancer cell line A549?
RESULT: < 4.00

###

# Test system: human non-small cell lung cancer cell line A549
# assayRemarks: Cytotoxicity experiment, SRB method, tumor cell proliferation
# Assay type: cell-based
# measurementSetup: A549, 48 h, read-out: IC50 (μmol/L) Non-small cell lung cancer cell A549
pIC50: −log10 of the molar value.
observedProperty: pIC50

QUERY: Give its pIC50 value. Item: COc1cc2ncnc(Nc3ccc(F)c(Cl)c3)c2cc1OCCC[N]1CC[NH][Ru+]1([Cl])[c]1ccccc1.F[P-](F)(F)(F)(F)F (stereo not drawn) [ZW2005]
RESULT: 4.35

QUERY: Quick one: pIC50 of COc1cc2ncnc(Nc3ccc(F)c(Cl)c3)c2cc1OCC[N]1CC[NH][Ru+]1([Cl])[c]1ccccc1.F[P-](F)(F)(F)(F)F (stereo not drawn) [ZW2002] ?
RESULT: < 4.00

QUERY: Returns the measured pIC50 for the input compound. Input: COc1cc2ncnc(Nc3ccc(F)c(Cl)c3)c2cc1OCC[N]1CC[NH][Ru+]1([Cl])[c]1cc(C(C)C)ccc1C.F[P-](F)(F)(F)(F)F (stereo not drawn) [ZW2001]
RESULT: < 4.00

###

# assayRemarks: Stability (physicochemical properties, Table 1)
# measurementSetup: air
observedProperty: Stability (in air)

| compound | assayValue |
| --- | --- |
| COc1cc2ncnc(Nc3ccc(F)c(Cl)c3)c2cc1OCCC[NH+]1CC[NH2+][Pt-2]1([Cl])[Cl] (stereo not drawn) | Stable in air, |
| COc1cc2ncnc(Nc3ccc(F)c(Cl)c3)c2cc1OCC[N]1CC[NH][Ru+]1([Cl])[c]1cc(C(C)C)ccc1C.F[P-](F)(F)(F)(F)F (stereo not drawn) | Stable in air, |
| COc1cc2ncnc(Nc3ccc(F)c(Cl)c3)c2cc1OCC[N]1CC[NH][Ru+]1([Cl])[c]1cccc(-c2ccccc2)c1.F[P-](F)(F)(F)(F)F (stereo not drawn) | Stable in air, |

###

Kindly supply the reported pIC50 values for the records listed here.
# Tested on: keratinocyte Colo-16
# assayRemarks: Cytotoxicity experiment, SRB method, tumor cell proliferation
# Type: cell-based
# measurementSetup: Colo-16, 48 h, SRB; read-out: IC50 (μmol/L) Keratinocyte Colo-16
# pIC50 = -log10(concentration in molar units)

QUERY: Using the record for COc1cc2ncnc(Nc3ccc(F)c(Cl)c3)c2cc1OCC[N]1CC[NH][Ru+]1([Cl])[c]1ccccc1.F[P-](F)(F)(F)(F)F (centres unmarked) , report its pIC50.
RESULT: 4.38

QUERY: Field request: pIC50 | item: COc1cc2ncnc(Nc3ccc(F)c(Cl)c3)c2cc1OCC[N]1CC[NH][Ru+]1([Cl])[c]1cccc(-c2ccccc2)c1.F[P-](F)(F)(F)(F)F (centres unmarked)
RESULT: 4.27

QUERY: Any idea what its pIC50 is? The compound is COc1cc2ncnc(Nc3ccc(F)c(Cl)c3)c2cc1OCCC[N]1CC[NH][Ru+]1([Cl])[c]1cccc(-c2ccccc2)c1.F[P-](F)(F)(F)(F)F (centres unmarked)
RESULT: 4.25

QUERY: Find the recorded pIC50 belonging to Cc1ccc(C(C)C)cc1.F[P-](F)(F)(F)(F)F.[Cl][Ru-]1[NH2+]CC[NH2+]1 [Pcy-Ru, reference compound] and report it.
RESULT: 4.84

QUERY: What does the record list as pIC50 for COc1cc2ncnc(Nc3ccc(F)c(Cl)c3)c2cc1OCCC[N]1CC[NH][Ru+]1([Cl])[c]1ccccc1.F[P-](F)(F)(F)(F)F (centres unmarked) ?
RESULT: 4.40

QUERY: I would be grateful if you could share the reported pIC50 for COc1cc2ncnc(Nc3ccc(F)c(Cl)c3)c2cc1OCC[N]1CC[NH][Ru+]1([Cl])[c]1cc(C(C)C)ccc1C.F[P-](F)(F)(F)(F)F (centres unmarked) .
RESULT: 4.37

QUERY: Item under review: COc1cc2ncnc(Nc3ccc(F)c(Cl)c3)c2cc1OCCC[N]1CC[NH][Ru+]1([Cl])[c]1cc(C(C)C)ccc1C.F[P-](F)(F)(F)(F)F (centres unmarked) . Reported pIC50?
RESULT: 4.24

###

# targetDesc: EGFR (Epidermal Growth Factor Receptor) (Homo sapiens)
# Sequence (P00533 25-1210): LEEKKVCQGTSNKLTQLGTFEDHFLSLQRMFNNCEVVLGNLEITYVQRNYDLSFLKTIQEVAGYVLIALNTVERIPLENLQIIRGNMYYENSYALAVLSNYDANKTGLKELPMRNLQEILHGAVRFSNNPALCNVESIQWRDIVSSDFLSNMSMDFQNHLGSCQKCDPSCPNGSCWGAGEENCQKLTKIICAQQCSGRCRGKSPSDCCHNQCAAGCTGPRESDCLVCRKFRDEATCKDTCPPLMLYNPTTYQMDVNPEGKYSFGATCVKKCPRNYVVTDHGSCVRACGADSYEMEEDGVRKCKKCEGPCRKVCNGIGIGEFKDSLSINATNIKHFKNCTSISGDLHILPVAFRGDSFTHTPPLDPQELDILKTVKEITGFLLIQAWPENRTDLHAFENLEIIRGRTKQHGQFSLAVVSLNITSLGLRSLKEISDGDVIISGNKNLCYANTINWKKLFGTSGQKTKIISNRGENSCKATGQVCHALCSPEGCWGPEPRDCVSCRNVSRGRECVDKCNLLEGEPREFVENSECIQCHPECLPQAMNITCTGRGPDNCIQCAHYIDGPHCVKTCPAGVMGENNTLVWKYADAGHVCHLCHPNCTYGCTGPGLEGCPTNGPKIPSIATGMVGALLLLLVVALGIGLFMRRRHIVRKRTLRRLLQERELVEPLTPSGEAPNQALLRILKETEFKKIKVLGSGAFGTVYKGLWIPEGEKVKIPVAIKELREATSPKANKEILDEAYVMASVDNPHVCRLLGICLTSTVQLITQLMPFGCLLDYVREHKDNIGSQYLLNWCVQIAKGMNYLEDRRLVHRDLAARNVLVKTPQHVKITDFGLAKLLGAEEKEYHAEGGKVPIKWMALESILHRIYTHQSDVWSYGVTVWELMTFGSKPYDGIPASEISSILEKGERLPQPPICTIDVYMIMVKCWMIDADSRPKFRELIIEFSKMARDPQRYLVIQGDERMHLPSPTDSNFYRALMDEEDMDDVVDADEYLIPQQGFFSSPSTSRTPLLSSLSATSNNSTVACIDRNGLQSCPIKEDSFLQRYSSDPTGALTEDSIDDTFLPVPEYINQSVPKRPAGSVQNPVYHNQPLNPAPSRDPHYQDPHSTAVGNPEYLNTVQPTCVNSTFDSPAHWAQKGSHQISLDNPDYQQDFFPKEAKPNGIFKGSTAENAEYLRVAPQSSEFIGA
observedProperty: IC50 (nM)
Report only the number, with the unit nM understood.

QUERY: Param readout = IC50; param system = EGFR (Epidermal Growth Factor Receptor) (Homo sapiens); param query = COc1cc2ncnc(Nc3ccc(F)c(Cl)c3)c2cc1OCC[NH+]1CC[NH2+][Pt-2]1([Cl])[Cl] (stereo not drawn) ; response: value
RESULT: 2.8

QUERY: Query IC50 on EGFR (Epidermal Growth Factor Receptor) (Homo sapiens) for COc1cc2ncnc(Nc3ccc(F)c(Cl)c3)c2cc1OCCNCCN
RESULT: 4.6

QUERY: API: value(readout= IC50, system= EGFR (Epidermal Growth Factor Receptor) (Homo sapiens), query= COc1cc2ncnc(Nc3ccc(F)c(Cl)c3)c2cc1OCCCNCCN )
RESULT: 7.2

QUERY: Hello, I am looking for reported IC50 with EGFR (Epidermal Growth Factor Receptor) (Homo sapiens) for COc1cc2ncnc(Nc3ccc(F)c(Cl)c3)c2cc1OCCC[NH+]1CC[NH2+][Pt-2]1([Cl])[Cl] (stereo not drawn) . Could you help?
RESULT: 17

QUERY: // map COc1cc2ncnc(Nc3ccc(F)c(Cl)c3)c2cc1OCC[N]1CC[NH][Ru]1([Cl])([Cl])([Cl])[SH](C)(C)=O to recorded IC50 (system: EGFR (Epidermal Growth Factor Receptor) (Homo sapiens))
RESULT: 7.5

QUERY: Enter reported IC50 observed with EGFR (Epidermal Growth Factor Receptor) (Homo sapiens) for COc1cc2ncnc(Nc3ccc(F)c(Cl)c3)c2cc1OCCC[N]1CC[NH][Ru+]1([Cl])[c]1cc(C(C)C)ccc1C.F[P-](F)(F)(F)(F)F (stereo not drawn)
RESULT: 106
